The measured values listed here are drawn from PubChem BioAssay AID602356.

# test.system: Neurotensin receptor type 1 (Homo sapiens) (UniProt P30989)
# Sequence (P30989 whole entry, looked up): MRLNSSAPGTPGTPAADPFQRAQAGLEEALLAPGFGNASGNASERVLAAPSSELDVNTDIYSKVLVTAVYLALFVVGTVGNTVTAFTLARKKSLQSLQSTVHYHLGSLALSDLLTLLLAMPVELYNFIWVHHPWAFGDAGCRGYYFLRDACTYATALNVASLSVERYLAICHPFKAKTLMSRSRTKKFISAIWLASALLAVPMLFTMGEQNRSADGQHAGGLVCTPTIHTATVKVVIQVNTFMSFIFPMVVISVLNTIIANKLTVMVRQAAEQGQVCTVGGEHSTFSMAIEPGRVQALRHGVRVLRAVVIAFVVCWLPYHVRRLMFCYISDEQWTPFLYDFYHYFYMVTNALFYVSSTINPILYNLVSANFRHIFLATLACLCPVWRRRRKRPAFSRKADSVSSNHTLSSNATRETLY
# assay.explanation: NTR1 agonists in analog series, SAR follow-up, imaging, image-based, set 3 (AID 602356)
# particulars: NTR1 image-based agonist assay, cellular imaging
Active and inactive are the calls of the source. How the calls were made is not given here.
Respond using exactly one of the listed classes: class 1 = active, class 0 = inactive

# example entries with known answers
COc1cc2nc(Cc3ccccc3)nc(N3CCN(c4ccccc4OC)CC3)c2cc1OC : class 1
COc1cc2nc(C3CC3)nc(N3CCN(C(=O)c4ccccc4OC)CC3)c2cc1OC : class 0

Each molecule tested received a call. Report the one for CCn1cc2c(-c3ccc(OC)cc3)nnc-2c2ccccc21 .
class 0

How about this molecule: COc1cc2nc(CCN(C)C)nc(N3CCN(c4ccccc4OC)CC3)c2cc1OC
class 0

Cool, now COc1cc2ncc3c(-c4ccc(F)cc4)n[nH]c3c2cc1OC
class 0
